System: CYP3A4
Details: Lot 3B; RIS = (Emax × Cmax,ub)/(EC50 + Cmax,ub)
ENDPOINT: RIS Based on Enzyme Activity
Give the figure only, with no unit attached.

Query string: Return reported RIS Based on Enzyme Activity; argument: NC(=O)N1c2ccccc2C=Cc2ccccc21 [Carbamazepine]
Result string: 0.9

Query string: Now this one: `CCCN(CCC)S(=O)(=O)c1ccc(C(=O)O)cc1`
Result string: 0.8

Query string: Same question, O=C1C(CC[S+]([O-])c2ccccc2)C(=O)N(c2ccccc2)N1c1ccccc1 (stereo not drawn) this time
Result string: 1.2

Query string: What do you get for `O=C1NC(=O)C(c2ccccc2)(c2ccccc2)N1` ?
Result string: 2.4

Query string: // query: CCc1ccc(CCOc2ccc(CC3SC(=O)NC3=O)cc2)nc1 (stereo not drawn)
Result string: 0.28

Query string: Can you check COc1ccc2[nH]c([S+]([O-])Cc3ncc(C)c(OC)c3C)nc2c1 (stereo not drawn) next?
Result string: 0.007

====

Test system: CYP3A4 mRNA
Assay: Concentration-dependent CYP3A4 mRNA induction in HepatoCells
Details: Lot 3B HepatoCells; CYP3A4 mRNA fold increase; 3 consecutive days treatment; NI = no induction observed at tested concentration; quinidine: only observed maximum fold induction
Please respond with reported Emax for every item in the list.
Enter your answer as a number in Fold; do not include the unit.

Query string: Given NC(=O)N1c2ccccc2C=Cc2ccccc21 [Carbamazepine] , state its recorded Emax.
Result string: 14

Query string: Query O=C1C(CC[S+]([O-])c2ccccc2)C(=O)N(c2ccccc2)N1c1ccccc1 (stereo not shown) next
Result string: 38

Query string: Next: `CCCN(CCC)S(=O)(=O)c1ccc(C(=O)O)cc1`
Result string: 22

Query string: How about CCc1ccc(CCOc2ccc(CC3SC(=O)NC3=O)cc2)nc1 (stereo not shown) ?
Result string: 15

Query string: And what about the molecule `O=C1NC(=O)C(c2ccccc2)(c2ccccc2)N1` ?
Result string: 35

Query string: And then COc1ccc2[nH]c([S+]([O-])Cc3ncc(C)c(OC)c3C)nc2c1 (stereo not shown) , what is it?
Result string: 27

Query string: Follow-up entry: `CN(C/C=C/C#CC(C)(C)C)Cc1cccc2ccccc12`
Result string: 21

====

System: CYP3A4 mRNA
Experiment: Concentration-dependent CYP3A4 mRNA induction in HepatoCells
Details: human, EC50, Lot 3B HepatoCells; CYP3A4 mRNA fold increase; nominal concentrations; NI = no induction observed at tested concentration
pEC50: −log10 of the molar value.
Note to self: values exactly at 4 are satisfied. So pEC50 at or above 4 is satisfied, below is not satisfied.

Query string: Hello, I need to know if CCc1ccc(CCOc2ccc(CC3SC(=O)NC3=O)cc2)nc1 (stereo not drawn) has measured pEC50 not below 4. Thanks!
Result string: satisfied

Query string: Item: O=C1C(CC[S+]([O-])c2ccccc2)C(=O)N(c2ccccc2)N1c1ccccc1 (stereo not drawn)
Result string: satisfied

Query string: Also check `O=C1NC(=O)C(c2ccccc2)(c2ccccc2)N1`
Result string: satisfied

Query string: Next record, please: NC(=O)N1c2ccccc2C=Cc2ccccc21 [Carbamazepine]
Result string: satisfied

Query string: And what about the compound COc1ccc2[nH]c([S+]([O-])Cc3ncc(C)c(OC)c3C)nc2c1 (stereo not drawn) ?
Result string: satisfied

Query string: Query `CCCN(CCC)S(=O)(=O)c1ccc(C(=O)O)cc1` next
Result string: not satisfied

====

Record form. Attribute: Predicted % AUC Change Based on mRNA. Fill in for each entry.
Tested on: CYP3A4
Settings: Lot 3A HepatoCells; RIS calibration curve
# include the unit after the value

Query string: Returns the measured Predicted % AUC Change Based on mRNA for the input compound. Input: `O=C1NC(=O)C(c2ccccc2)(c2ccccc2)N1`
Result string: 98%

Query string: Repeat for the following compound: COc1ccc2[nH]c([S+]([O-])Cc3ncc(C)c(OC)c3C)nc2c1 (centres unmarked)
Result string: 0.14%

Query string: Please give the result for `CCCN(CCC)S(=O)(=O)c1ccc(C(=O)O)cc1` too.
Result string: 98%

Query string: Next up: NC(=O)N1c2ccccc2C=Cc2ccccc21 [Carbamazepine]
Result string: 87%

Query string: Item: CCc1ccc(CCOc2ccc(CC3SC(=O)NC3=O)cc2)nc1 (centres unmarked)
Result string: 35%

====

Task for the reader: assign each of the following compounds its reported Predicted % AUC Change Based on Activity.
System: CYP3A4
Conditions: Lot 3A HepatoCells; RIS calibration curve

Query string: # lookup: Predicted % AUC Change Based on Activity of `O=C1NC(=O)C(c2ccccc2)(c2ccccc2)N1`
Result string: 96%

Query string: Next compound: NC(=O)N1c2ccccc2C=Cc2ccccc21 [Carbamazepine]
Result string: 92%

Query string: Request: COc1ccc2[nH]c([S+]([O-])Cc3ncc(C)c(OC)c3C)nc2c1 (centres unmarked)
Result string: 0.002%

Query string: Also, `CCCN(CCC)S(=O)(=O)c1ccc(C(=O)O)cc1` please.
Result string: 94%

Query string: Please do the same for CCc1ccc(CCOc2ccc(CC3SC(=O)NC3=O)cc2)nc1 (centres unmarked) as well.
Result string: 23%

====

Tested on: CYP3A4 mRNA
Experiment: Concentration-dependent CYP3A4 mRNA induction in HepatoCells
Details: human, EC50, Lot 3A HepatoCells; CYP3A4 mRNA fold increase; nominal concentrations; NI = no induction observed at tested concentration
ENDPOINT: EC50 (µM)
# output: bare number, implied unit µM

Query string: Hello, I am looking for reported EC50 with CYP3A4 mRNA for `O=C1NC(=O)C(c2ccccc2)(c2ccccc2)N1` . Could you help?
Result string: 16

Query string: And NC(=O)N1c2ccccc2C=Cc2ccccc21 [Carbamazepine] ?
Result string: 65

Query string: Let us now turn to `CCCN(CCC)S(=O)(=O)c1ccc(C(=O)O)cc1`
Result string: 176

Query string: What do you have for O=C1C(CC[S+]([O-])c2ccccc2)C(=O)N(c2ccccc2)N1c1ccccc1 (stereo not drawn) ?
Result string: 28

Query string: Now try CCc1ccc(CCOc2ccc(CC3SC(=O)NC3=O)cc2)nc1 (stereo not drawn) .
Result string: 2.3

Query string: Further, for COc1ccc2[nH]c([S+]([O-])Cc3ncc(C)c(OC)c3C)nc2c1 (stereo not drawn) ?
Result string: 23

====

Test system: CYP2B6
Assay: CYP2B6 induction response to prototypical inducer, enzyme activity, HepatoCells
Conditions: human, probe bupropion 250 µM
ENDPOINT: fold induction at 72 h, 1 mM
The answer should be a number; do not append a unit.

Query string: Could you share which fold induction at 72 h, 1 mM value was measured for `CCC1(c2ccccc2)C(=O)NC(=O)NC1=O` ?
Result string: 5

====

Tested on: CYP3A4 mRNA
Assay: Concentration-dependent CYP3A4 mRNA induction in HepatoCells
Details: Lot 2B HepatoCells; CYP3A4 mRNA fold increase; 3 consecutive days treatment; NI = no induction observed at tested concentration; quinidine: only observed maximum fold induction
ENDPOINT: Emax
Returns: string containing the numeric result and its unit.

Query string: What Emax value was documented for this compound, O=C1C(CC[S+]([O-])c2ccccc2)C(=O)N(c2ccccc2)N1c1ccccc1 (stereo not shown) [Sulfinpyrazone] ?
Result string: 31 Fold

Query string: And what about the compound CCc1ccc(CCOc2ccc(CC3SC(=O)NC3=O)cc2)nc1 (stereo not shown) [Pioglitazone] ?
Result string: 33 Fold

Query string: How about O=C1NC(=O)C(c2ccccc2)(c2ccccc2)N1 [Phenytoin] ?
Result string: 23 Fold

Query string: Param item: CCCN(CCC)S(=O)(=O)c1ccc(C(=O)O)cc1 [Probenecid]
Result string: 25 Fold

Query string: Another compound: NC(=O)N1c2ccccc2C=Cc2ccccc21 [Carbamazepine]
Result string: 16 Fold

Query string: Continue with CN(C/C=C/C#CC(C)(C)C)Cc1cccc2ccccc12 [Terbinafine]
Result string: 20 Fold

Query string: Would you kindly repeat that for COc1ccc2[nH]c([S+]([O-])Cc3ncc(C)c(OC)c3C)nc2c1 (stereo not shown) [Omeprazole] ?
Result string: 24 Fold

====

Test system: CYP3A4
Details: Lot 3B HepatoCells; RIS calibration curve
Text: The resulting fitting equation was used to calculate predicted in vivo AUC change for each compound. […] Prediction accuracy using HepatoCells was also compared with prediction accuracy using primary human hepatocytes.
Classify by measured Predicted % AUC Change Based on Activity: 1 if it is equal to or exceeds 80%, -1 if it is smaller.

Query string: Record CCc1ccc(CCOc2ccc(CC3SC(=O)NC3=O)cc2)nc1 (centres unmarked) [Pioglitazone] ; criterion: Predicted % AUC Change Based on Activity no lower than 80%. Met?
Result string: -1

Query string: What do we get for COc1ccc2[nH]c([S+]([O-])Cc3ncc(C)c(OC)c3C)nc2c1 (centres unmarked) [Omeprazole] ?
Result string: -1

Query string: Then what about the molecule CCCN(CCC)S(=O)(=O)c1ccc(C(=O)O)cc1 [Probenecid] ?
Result string: 1

Query string: Next entry: NC(=O)N1c2ccccc2C=Cc2ccccc21 [Carbamazepine]
Result string: 1

Query string: Please give the result for O=C1NC(=O)C(c2ccccc2)(c2ccccc2)N1 [Phenytoin] too.
Result string: 1
